method-notes: In vitro cytotoxicity, non-cancerous cells
Format: cell-based
condition-set: human, HK-2 kidney cortex proximal tubule cells (non-cancerous); 24 hours incubation

{"smi": "O=C(NCc1cccc2ccccc12)c1cnc2ccccc2n1", "IC50 at 24 h": "> 250 µM"}

----------
In this section, each of the molecules is paired with its reported SI (selectivity index).
System: Mtb H37Ra
method-notes: In vitro antimycobacterial activity, Microplate Alamar Blue Assay (MABA)
Type: cell-based, Mycobacterium tuberculosis
condition-set: IC50 HepG2 (µM)/MIC Mtb H37Ra (µM)

{"smi": "O=C(NCc1ccccc1)c1cnc2ccccc2n1", "SI (selectivity index)": ">17"}
{"smi": "O=C(NCc1ccc(Br)cc1)c1cnc2ccccc2n1", "SI (selectivity index)": ">4.4"}
{"smi": "COc1cccc(CNC(=O)c2cnc3ccccc3n2)c1", "SI (selectivity index)": ">21.3"}
{"smi": "COc1cc(NC(=O)c2cnc3ccccc3n2)cc(OC)c1", "SI (selectivity index)": ">0.12"}
{"smi": "O=C(Nc1ccc(O)cc1)c1cnc2ccccc2n1", "SI (selectivity index)": ">1.01"}
{"smi": "O=C(NCc1ccc(O)cc1)c1cnc2ccccc2n1", "SI (selectivity index)": ">1.1"}
{"smi": "O=C(Nc1ccc(F)cc1)c1cnc2ccccc2n1", "SI (selectivity index)": ">1.71"}
{"smi": "O=C(Nc1cccc(O)c1)c1cnc2ccccc2n1", "SI (selectivity index)": ">4.20"}
{"smi": "O=C(NC1CCCCC1)c1cnc2ccccc2n1", "SI (selectivity index)": ">8.17"}
